Target: Glucose transporter (Leishmania mexicana) (UniProt O61059)
Assay: ST_JUDE_LEISH: Cytotoxicity at 2uM final concentration against transgenic Leishmania Mexicana promastigotes LmGT2 that are glucose transport deficient and complemented with the L. Mexicana glucose transporter 2. Activity is measured by DNA content using SYBR green in vitro
Type: functional
# inhibition per record follows
Return type: number; implicit unit %.

See these solved cases before continuing.
CCc1c(CCNCCCCCCNCCc2ccc([N+](=O)[O-])cc2)ccc(OC)c1OC = 12.9
CC1CN(Cc2ccc(C#N)cc2)CCN1c1ccc(NC(=O)c2cccs2)cc1 (stereo not drawn) = 8.98
N=C(N)c1ccc(C(=O)Nc2cccc(C(=N)N)c2)cc1 = -0.81
CN(C)CCCN(C)C(=O)c1cc2cc(-c3ccccc3)ccc2n1S(=O)(=O)c1ccccc1 = -0.41
O=C(/C=C/c1ccc(C(F)(F)F)cc1)NCCCCCN1CCN(C(=O)Nc2ccc(F)c(Cl)c2)CC1 = 0.69

Note inhibition for the molecule shown: CCOC(=O)[C@H](Cc1cc([N+](=O)[O-])c(Oc2ccc(OC)c(Cc3ccc(OC)c(C(C)C)c3)c2)c([N+](=O)[O-])c1)NC(=O)C(F)(F)F
12.6

Note inhibition for the molecule shown: COc1cc(C=C(C2=NC(=O)CS2)c2nc3cccnc3n2C)ccc1O
4.82

Note inhibition for the molecule shown: Cc1ccc(CNC(=O)c2cc3c(=O)n4ccccc4nc3n(CCCN3CCOCC3)c2=N)cc1
7.61

Note inhibition for the molecule shown: Nc1nc(N)c2c(Oc3cccc(Cl)c3)cccc2n1
-1.1

Note inhibition for the molecule shown: O=C(/C=C/c1cccs1)NCC(NCCCNc1cc(=O)c2ccccc2[nH]1)c1cc(Br)cc(Br)c1 (stereo not drawn)
4.57

Note inhibition for the molecule shown: C=CCN(c1ccc(OC)cc1)S(=O)(=O)c1ccc(Cl)c(C(=O)Nc2cccc(C#N)c2)c1
4.17

Note inhibition for the molecule shown: CC[C@H](NC(=O)c1c(CCCN2CCN(c3ccccc3)CC2)c(-c2ccccc2)nc2cc(O)ccc12)c1ccccc1
10.9

Note inhibition for the molecule shown: CC1CCC(C[C@@H](C(=O)N[C@@H](CCC(=O)N2CCCCC2)C(=O)Nc2nccs2)[C@H](C(C)C)N(O)C=O)CC1 (stereo partly drawn)
3.44

---

Target: Solute carrier family 2, facilitated glucose transporter member 1 (Homo sapiens) (UniProt P11166)
Sequence (P11166 whole entry): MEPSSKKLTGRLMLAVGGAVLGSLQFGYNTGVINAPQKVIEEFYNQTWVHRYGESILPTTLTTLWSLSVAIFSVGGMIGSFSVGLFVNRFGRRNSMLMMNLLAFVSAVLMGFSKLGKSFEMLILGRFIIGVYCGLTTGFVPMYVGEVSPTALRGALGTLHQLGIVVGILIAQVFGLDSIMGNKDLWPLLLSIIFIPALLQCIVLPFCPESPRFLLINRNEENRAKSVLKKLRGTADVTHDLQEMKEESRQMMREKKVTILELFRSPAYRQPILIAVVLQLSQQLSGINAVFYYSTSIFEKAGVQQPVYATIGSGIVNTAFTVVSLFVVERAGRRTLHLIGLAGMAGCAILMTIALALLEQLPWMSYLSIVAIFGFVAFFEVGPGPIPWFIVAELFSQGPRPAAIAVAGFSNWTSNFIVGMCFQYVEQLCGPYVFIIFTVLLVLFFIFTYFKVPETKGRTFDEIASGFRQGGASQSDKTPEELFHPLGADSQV
Experiment: ST_JUDE_LEISH: Cytotoxicity at 2uM final concentration against transgenic Leishmania Mexicana promastigotes LmGLUT1 that are glucose transport deficient and complemented with the human glucose transporter GLUT1. Activity is measured by DNA content using SYBR green in vitro
Format: functional
endpointLabel: inhibition (%)
Return type: number; implicit unit %.

See these solved cases before continuing.
Cc1ccc(F)cc1S(=O)(=O)NCC(C)c1ccc(NC(=O)Nc2cccc(F)c2)cc1 (centres undefined) = 0.16
COc1ccc(CNC2Cc3ccccc3C2)cc1-c1ccc(S(=O)(=O)NCCN2CCCC2)c(F)c1 = 28.3
Cn1cncc1C(=O)Nc1ccc(-c2ccc(-c3nc4cc(C(F)(F)F)ccc4[nH]3)cc2)cc1 = 20.8
CN(CCCNCc1ccc2ccccc2c1)CCCNCc1ccc2ccccc2c1 = 12.4
O=C(Nc1ccc(C(=O)Oc2ccc(-c3ccccc3)cc2)cc1)N[C@@H](Cc1ccc(O)cc1)C(=O)NC1CCN(Cc2ccc(O)cc2)C1 (some centres undefined) = 2.56

Note inhibition for the compound shown: O=C(NCCCN1CCCCC1)c1cccc(Nc2nccc(Nc3ccc(Oc4ccccc4)cc3)n2)c1
-2.69

Note inhibition for the compound shown: COc1ccc(OC)c(-c2ccc(O)c(CNCC(C)c3ccccc3)c2)c1 (centres undefined)
-0.66

Note inhibition for the compound shown: Cc1ccc(NC(=O)C2CCC2)cc1-c1ccc(C(=O)NCC2CC2)cc1
1.36

Note inhibition for the compound shown: CC(C)[C@H](NC(=O)c1ccc(O)c(-c2ccc(Cl)c(Cl)c2)c1)C(=O)NCCN1CCCC1
-0.22

Note inhibition for the compound shown: COc1ccc(CNc2ncnc3c2[nH]c2ccc(F)cc23)cc1
7.12

Note inhibition for the compound shown: CCNc1cc(C)nc(Nc2ccc(C)cc2)n1
25.8

Note inhibition for the compound shown: COCCN1CCC(C(=O)NCC(C)(C)c2nc(-c3ccc(Br)c(O)c3)c(-c3ccncc3)[nH]2)CC1
7.2

Note inhibition for the compound shown: c1ccc(Oc2ccc(Nc3ccnc4cc(-c5ccc(CN6CCCCC6)o5)ccc34)cc2)nc1
-2.19

Note inhibition for the compound shown: N=C(N)c1ccc(NC(=O)c2cc(Sc3ccc(O)c(C(=O)Nc4ccc(C(=N)N)cc4)c3)ccc2O)cc1
9.7

---

Target: Glucose transporter (Leishmania mexicana) (UniProt O61059)
Test: ST_JUDE_LEISH: Cytotoxicity at 2uM final concentration against transgenic Leishmania Mexicana promastigotes LmGT2 that are glucose transport deficient and complemented with the L. Mexicana glucose transporter 2. Activity is measured by DNA content using SYBR green in vitro
Assay type: functional
endpointLabel: inhibition (%)
Return type: number; implicit unit %.

CN(C)c1ccc(CN2CCCCC(NC(=O)c3cc(-c4ccccc4F)cs3)C2)cc1 (configuration not stated) = -7.76
CCCN1CCN(Cc2ccc(C(=O)Nc3ccc(Cl)cc3)cc2)CC1 = 4.34
CN(Cc1cccc(C#N)c1)C1CCN(c2cc(NC(=O)c3ccc(F)cc3)ccn2)CC1 = 4.06
CCOC(=O)CN1Cc2cc(NCc3ccc4ccc5nc(C)[nH]c(=O)c5c4c3)ccc2C1=O = -0.88
O=C(NCCN1CCOCC1)c1ccc(CNC(=O)c2ccc(O)c(-c3ccc(Cl)c(Cl)c3)c2)cc1 = 1.84

Note inhibition for the molecule shown: O=C(NC1CCN(Cc2ccccc2)CC1)c1cc(-c2cccnc2)nc2ccc(Cl)cc12
8.35

Note inhibition for the molecule shown: CC1CCC2(CC1)NC(N)=NC(=N)N2OCCCCCCCCO (configuration not stated)
2.52

---

Target: Solute carrier family 2, facilitated glucose transporter member 1 (Homo sapiens)
Assay: ST_JUDE_LEISH: Cytotoxicity at 2uM final concentration against transgenic Leishmania Mexicana promastigotes LmGLUT1 that are glucose transport deficient and complemented with the human glucose transporter GLUT1. Activity is measured by DNA content using SYBR green in vitro
Type: functional
# inhibition per record follows
Return type: number; implicit unit %.

See these solved cases before continuing.
COc1ccc(-c2cccc(NC(=O)c3cccc(C#N)c3)c2)cc1CN1CCCC1 = 12.1
Cc1cccc2nc(-c3ccc(-c4cccc(CN5CCCC(O)C5)c4)s3)[nH]c12 (stereo unspecified) = 3.6
O=C(/C=C/c1ccc(Cl)c(Cl)c1)NC1CCC(CN2CCC(c3coc4ccccc34)CC2)CC1 (stereo unspecified) = -1.76

Note inhibition for the molecule shown: O=C(NCc1cccc(C(F)(F)F)c1)C(c1cc2ccccc2o1)N1CCN(C(c2ccccc2)c2ccccc2)CC1 (stereo unspecified)
1.37

Note inhibition for the molecule shown: CC(C)n1cc2c(ccc3nc(N)nc(N)c32)n1
7.23

Note inhibition for the molecule shown: CC(=O)Nc1ccc(C(=O)Nc2ccc(-c3cccc(-c4nc5cc(C(F)(F)F)ccc5[nH]4)c3)cc2)cn1
-0.12

Note inhibition for the molecule shown: CCC(CO)NCC(O)Cn1c2ccc(Cl)cc2c2cc(Cl)ccc21 (stereo unspecified)
4.65

Note inhibition for the molecule shown: COc1cccc(-c2ccc(C(=O)NC3CCN(Cc4ccc(N(C)C)cc4)CC3)s2)c1
2.66

Note inhibition for the molecule shown: Cn1ccnc1CNC(=O)c1ccc(-c2ccc(-c3nc4cc(C(F)(F)F)ccc4[nH]3)s2)cc1
4.17

Note inhibition for the molecule shown: Cc1cccc(CN2CCCN(Cc3ccc(C(=O)Nc4ccc(Cl)cc4)cc3)CC2)c1
11.2

---

Target: Solute carrier family 2, facilitated glucose transporter member 1 (Homo sapiens)
Assay: ST_JUDE_LEISH: Cytotoxicity at 2uM final concentration against transgenic Leishmania Mexicana promastigotes LmGLUT1 that are glucose transport deficient and complemented with the human glucose transporter GLUT1. Activity is measured by DNA content using SYBR green in vitro
Format: functional
endpointLabel: inhibition (%)
Return type: number; implicit unit %.

See these solved cases before continuing.
Cc1cc(N[C@@H](Cc2ccccc2)C(=O)NCCOc2ccccc2)nc(NCCc2ccccn2)n1 = 6.81
CC(C)c1ccc(CN2CCC(CNC(=O)c3cc(-c4ccc(N(C)C)cc4)cs3)C2)cc1 (centres undefined) = 2.27
Cc1cc(-c2cccc3c(NC(=O)N4CCc5cc6nccc(N7CCN8CCC[C@H]8C7)c6cc54)cccc23)cc(C)n1 = 4.48
c1ccc(Oc2ccc(Nc3ccnc(Nc4ccc5cn[nH]c5c4)n3)cc2)cc1 = 3.91
CCc1c(CCNCCCCCCNCCc2ccc([N+](=O)[O-])cc2)ccc(O)c1O = -1.33

Note inhibition for the compound shown: COc1ccc(CN2CCC(N3CCc4cc(NC(=O)c5cc(C)on5)ccc43)C2)cc1Cl (centres undefined)
-0.2

Note inhibition for the compound shown: N#Cc1cccc(C(=O)Nc2cccc(-c3ccc(C(=O)NCCCN4CCOCC4)cc3)c2)c1
6.85

Note inhibition for the compound shown: Cc1nc(C)c(-c2ccc(Oc3ccc(Cl)c(Cl)c3)cc2)c(O)c1Cl
1.91

Note inhibition for the compound shown: O=C(Nc1ccc(Cn2ncc(N3CCCNCC3)c(Cl)c2=O)cc1)Nc1cccc(C(F)(F)F)c1
0.62

Note inhibition for the compound shown: CC(C)COc1ccc(Cl)cc1Cc1ccc(-c2nc3ccc(Cl)cc3[nH]2)o1
-1.56

Note inhibition for the compound shown: O=C(N[C@H]1CCN(Cc2ccc(OCCCN3CCCCC3)cc2)C1)c1ccc2ccccc2c1
4.56

Note inhibition for the compound shown: COC(=O)c1c(C#N)c(OC)cc(O)c1CSC[C@@H](CN1CCCCC1)Nc1nc(-c2ccc([N+](=O)[O-])cc2)cs1
-0.16

Note inhibition for the compound shown: N#Cc1ccc(N/C(=N\c2ccc(-c3ccccc3)cc2)NC2CCCc3ccccc32)c(O)c1 (centres undefined)
-1.53

Note inhibition for the compound shown: O=C1NC(=O)C(c2ccc(Cl)cc2)=C1Nc1cccc(S(=O)(=O)C(F)(F)F)c1
1.37

# credit: ChEMBL document CHEMBL3433997
